- System under test: human recombinant BACE2 (Homo sapiens (Human), UniProt Q9Y5Z0)
- Sequence (Q9Y5Z0 63-518): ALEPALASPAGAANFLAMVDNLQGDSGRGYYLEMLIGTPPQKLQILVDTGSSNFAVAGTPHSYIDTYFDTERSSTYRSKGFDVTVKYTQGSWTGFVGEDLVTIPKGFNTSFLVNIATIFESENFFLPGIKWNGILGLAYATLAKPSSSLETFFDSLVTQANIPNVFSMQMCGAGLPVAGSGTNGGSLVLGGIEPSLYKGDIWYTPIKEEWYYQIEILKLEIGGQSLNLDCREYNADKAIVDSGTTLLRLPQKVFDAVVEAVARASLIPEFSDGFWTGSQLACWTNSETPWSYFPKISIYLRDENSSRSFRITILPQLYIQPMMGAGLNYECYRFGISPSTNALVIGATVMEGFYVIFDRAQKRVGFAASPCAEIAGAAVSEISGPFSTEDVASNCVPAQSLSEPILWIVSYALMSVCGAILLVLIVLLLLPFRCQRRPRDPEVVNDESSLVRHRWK
- Test protocol: In vitro enzymatic BACE2 FRET assay
- Type: biochemical
- Experimental context: read-out: IC50 IP (μM) BACE2 enzyme
Measurement type: IC50 (µM)

{"Compound": "COC[C@]12C[C@H]1[C@@](C)(c1cc(NC(=O)c3cnc(OCc4ccccc4)cn3)cc(F)c1F)N=C(N)S2", "Quantitative readout": 0.0323}

[I] C#CCOc1cnc(C(=O)Nc2cc(F)c(F)c([C@@]3(C)N=C(N)S[C@@]4(C(=O)NC)C[C@H]43)c2)cn1
[II] NC1=N[C@](CF)(c2cc(NC(=O)c3ccc(Cl)cn3)ccc2F)[C@@H]2C[C@]2(COCC(F)(F)F)S1
[III] C#CCOc1cnc2c(Nc3cc(F)c(F)c([C@@]4(C)N=C(N)S[C@@]5(CF)C[C@H]54)c3)ncnc2c1
[IV] COC[C@]12C[C@H]1[C@@](C)(c1cc(NC(=O)c3cnc(OC(C)C(F)(F)F)cn3)ccc1F)N=C(N)S2 (mixture of isomers)
[V] Cc1cc(OCc2ncco2)cnc1C(=O)Nc1cc(F)c(F)c([C@@]2(C)N=C(N)S[C@@]3(C(F)F)C[C@@H]23)c1
Task: Your job: order these 5 records by IC50, ascending. Ranked list of labels, please, in the requested order.
Output: II, I, III, V, IV
(II: 0.00382 µM, I: 0.0108 µM, III: 0.0258 µM, V: 0.134 µM, IV: 1.1 µM)

---

- System under test: Recombinant Cat D (Homo sapiens (Human), UniProt P07339)
- Sequence (P07339 65-412): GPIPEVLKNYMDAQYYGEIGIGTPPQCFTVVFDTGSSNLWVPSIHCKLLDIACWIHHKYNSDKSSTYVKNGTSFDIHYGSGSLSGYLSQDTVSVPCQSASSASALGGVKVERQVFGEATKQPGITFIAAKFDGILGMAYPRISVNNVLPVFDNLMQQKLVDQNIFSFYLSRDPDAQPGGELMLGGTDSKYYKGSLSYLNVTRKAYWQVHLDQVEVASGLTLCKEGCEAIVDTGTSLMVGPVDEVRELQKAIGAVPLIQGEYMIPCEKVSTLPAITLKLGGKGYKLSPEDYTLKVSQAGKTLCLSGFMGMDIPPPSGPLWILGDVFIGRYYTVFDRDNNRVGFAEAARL
- Test protocol: In vitro enzymatic Cathepsin D (Cat D) FRET assay
- Type: biochemical
- Experimental context: Cathepsin D FRET enzyme assay; read-out: IC50 IP (μM) CatD
Measurement type: IC50 (µM)

{"Compound": "COC[C@]12C[C@H]1[C@@](C)(c1cc(Nc3nccc4cc(Cl)cnc34)cc(F)c1F)N=C(N)S2 [Example 24]", "System under test": "Recombinant Cat D (Homo sapiens (Human), UniProt P07339)", "IC50, µM": 189}
{"Compound": "CCOC(=O)[C@]12C[C@H]1[C@@](C)(c1cc(Nc3nccc4cc(Cl)cnc34)cc(F)c1F)N=C(N)S2 [Example 25]", "System under test": "Recombinant Cat D (Homo sapiens (Human), UniProt P07339)", "IC50, µM": 48.7}
{"Compound": "CC#CCOc1cnc(C(=O)Nc2cc(F)c(F)c([C@@]3(C)N=C(N)S[C@@]4(CO)C[C@H]43)c2)c(C)c1 [Example 85]", "System under test": "Recombinant Cat D (Homo sapiens (Human), UniProt P07339)", "IC50, µM": 1550}

[1] COC[C@@]12C[C@@H]1[C@@](CF)(c1cc(NC(=O)c3ccc(Cl)cn3)cc(F)c1F)N=C(N)S2 [Example 96]
[2] C#CCOc1cnc2c(Nc3cc(F)c(F)c([C@@]4(C)N=C(N)S[C@H]5C[C@H]54)c3)nccc2c1 [Example 32]
[3] C[C@]1(c2cc(Nc3ncnc4cc(Cl)cnc34)cc(F)c2F)N=C(N)S[C@@]2(CO)C[C@H]21 [Example 92]
Task: Ascending sort, IC50. # answer = labels listed in requested order
Output: 1, 2, 3
(1: 40.4 µM, 2: 138 µM, 3: 414 µM)

[I] C#CCOc1cnc(C(=O)Nc2cc(F)c(F)c([C@@]3(C)N=C(N)S[C@H]4C[C@H]43)c2)cn1 [Example 23]
[II] Cc1cc(Cl)cnc1C(=O)Nc1cc(F)c(F)c([C@@]2(CF)N=C(N)S[C@H]3C[C@H]32)c1 [Example 78]
[III] NC1=N[C@](CF)(c2cc(Nc3ncnc4cc(Cl)cnc34)ccc2F)[C@@H]2C[C@]2(CO)S1 [Example 49]
Task: Give the ascending ranking of the items by reported IC50. The reply should contain the labels ordered as requested.
Output: I, II, III

---

- System under test: human recombinant BACE1 (Homo sapiens (Human), UniProt P56817)
- Sequence (P56817 46-501): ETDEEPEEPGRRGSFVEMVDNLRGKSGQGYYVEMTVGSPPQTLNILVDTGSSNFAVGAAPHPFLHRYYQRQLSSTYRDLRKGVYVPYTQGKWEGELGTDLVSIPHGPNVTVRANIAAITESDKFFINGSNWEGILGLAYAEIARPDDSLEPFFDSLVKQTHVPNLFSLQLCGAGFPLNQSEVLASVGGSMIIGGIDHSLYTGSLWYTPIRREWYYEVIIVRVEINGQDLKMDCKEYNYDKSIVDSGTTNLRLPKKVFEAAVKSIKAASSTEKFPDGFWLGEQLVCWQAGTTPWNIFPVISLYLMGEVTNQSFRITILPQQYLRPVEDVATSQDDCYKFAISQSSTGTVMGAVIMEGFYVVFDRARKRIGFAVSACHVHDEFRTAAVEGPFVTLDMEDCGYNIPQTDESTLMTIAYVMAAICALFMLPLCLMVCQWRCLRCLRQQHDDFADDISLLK
- Test protocol: In vitro enzymatic BACE1 FRET assay
- Assay type: biochemical
- Experimental context: read-out: IC50 IP (μM) BACE1 enzyme
Measurement type: IC50 (pM)

Some entries whose results are on file:
{"Compound structure string": "C#CCOc1cnc(C(=O)Nc2ccc(F)c([C@@]3(C)N=C(N)S[C@@]4([C@@H](O)C(F)(F)F)C[C@H]43)c2)cn1", "Measurement type": "IC50", "Quantitative readout": 368}
{"Compound structure string": "CN(C)C(=O)/C=C/[C@]12C[C@H]1[C@@](CF)(c1cc(Nc3nccc4nc(OCc5ncco5)cnc34)ccc1F)N=C(N)S2", "Measurement type": "IC50", "Quantitative readout": 1430}

[a] Cc1nc(COc2cnc3c(Nc4cc(F)c(F)c([C@@]5(C)N=C(N)S[C@@]6(C(F)F)C[C@@H]56)c4)nccc3n2)c(C)o1
[b] C#CCOc1cnc(C(=O)Nc2ccc(F)c([C@@]3(CF)N=C(N)S[C@@]4(c5c[nH]nn5)C[C@@H]34)c2)cn1
[c] C/C(=C/[C@]12C[C@H]1[C@@](CF)(c1cc(NC(=O)c3ccc(Cl)cn3)ccc1F)N=C(N)S2)C(=O)N1CCOCC1
[d] C#CCOc1cnc(C(=O)Nc2cc(F)c(F)c([C@@]3(C)N=C(N)S[C@@]4(C(=O)OC)C[C@H]43)c2)cn1
Task: Put the molecules in ascending order of IC50. Sort the labels as requested; that list is your answer.
Output: b, c, d, a
(b: 90.1 pM, c: 274 pM, d: 565 pM, a: 1100 pM)

---

- System under test: Recombinant Cat D (Homo sapiens (Human))
- Test protocol: In vitro enzymatic Cathepsin D (Cat D) FRET assay
- Assay type: biochemical
- Experimental context: read-out: IC50 IP (μM) CatD
Measurement type: IC50 (µM)

{"Compound structure string": "C#C[C@H](C)Oc1cnc(C(=O)Nc2cc(F)c(F)c([C@@]3(C)N=C(N)S[C@@]4(C(F)F)C[C@@H]34)c2)c(C)c1", "Unit descriptor": "µM", "IC50": 389}

[1] C#CCOc1cnc(C(=O)Nc2cc(F)c(F)c([C@@]3(C)N=C(N)S[C@@]4(C(=O)N5CCOCC5)C[C@H]43)c2)cn1
[2] C#CCOc1cnc2c(Nc3ccc(F)c([C@@]4(C)N=C(N)S[C@@]5(C#N)C[C@H]54)c3)ncnc2c1
Task: Lab log: flag the item ( 1 or 2 ) with the smaller IC50 figure. // respond with label for picked entry
Output: 1

---

- System under test: human recombinant BACE1 (Homo sapiens (Human), UniProt P56817)
- Test protocol: In vitro enzymatic BACE1 FRET assay
- Format: biochemical
- Experimental context: BACE1 FRET enzyme assay; read-out: IC50 IP (μM) BACE1 enzyme
Measurement type: IC50 (µM)

Observe how each entry below is paired with its result.
{"Compound": "COc1cnc2c(Nc3cc(F)c(F)c([C@@]4(C)N=C(N)S[C@@]5(CO)C[C@H]54)c3)nccc2n1", "IC50 / µM": 0.01}
{"Compound": "NC1=N[C@](CF)(c2cc(NC(=O)c3ccc(Cl)cn3)ccc2F)[C@@H]2C[C@]2(CF)S1", "IC50 / µM": 0.00227}
{"Compound": "COc1cnc(C(=O)Nc2cc(F)c(F)c([C@@]3(C)N=C(N)S[C@H]4C[C@H]43)c2)cn1", "IC50 / µM": 0.0141}

[P] NC1=N[C@](CF)(c2cc(Nc3nncc4cc(Br)cnc34)ccc2F)C2C[C@@H]2S1 (stereo in doubt)
[Q] COc1cnc2c(Nc3ccc(F)c([C@@]4(CF)N=C(N)S[C@H]5CC54)c3)ncnc2c1 (stereo in doubt)
[R] COc1cnc(C(=O)Nc2cc(F)c(F)c([C@@]3(CF)N=C(N)S[C@H]4C[C@H]43)c2)c(C)c1
[S] Cc1cc(C#N)cnc1C(=O)Nc1cc(F)c(F)c([C@@]2(CF)N=C(N)S[C@@]3(CO)C[C@H]32)c1
Task: Highest IC50 first, then in falling order down to the smallest. Returns: the labels listed in the requested order.
Output: Q, R, P, S
(Q: 0.0416 µM, R: 0.0219 µM, P: 0.0137 µM, S: 0.00116 µM)

---

- System under test: human recombinant BACE1 (Homo sapiens (Human))
- Test protocol: In vitro enzymatic BACE1 FRET assay
- Assay type: biochemical
- Experimental context: read-out: IC50 IP (μM) BACE1 enzyme
Measurement type: IC50 (µM)

Examples with their reported IC50 follow.
{"Compound structure string": "C#CCOc1ccc(C(=O)Nc2ccc(F)c([C@@]3(CF)N=C(N)S[C@@]4(c5ccon5)C[C@@H]34)c2)nc1", "Quantitative readout": 0.000293}
{"Compound structure string": "CC(C)[C@H](C)NC(=O)[C@]12C[C@H]1[C@@](C)(c1cc(NC(=O)c3cnc(OCC(F)(F)F)cn3)ccc1F)N=C(N)S2", "Quantitative readout": 0.00132}
{"Compound structure string": "CNC(=O)[C@]12C[C@H]1[C@@](C)(c1cc(NC(=O)c3cnc(OCC(F)(F)F)cn3)ccc1F)N=C(N)S2", "Quantitative readout": 0.000404}

[a] C#CCOc1cnc(C(=O)Nc2ccc(F)c([C@@]3(C)N=C(N)S[C@@]4([C@H](O)C(F)(F)F)C[C@H]43)c2)cn1
[b] CON(C)C(=O)[C@]12C[C@H]1[C@@](C)(c1cc(NC(=O)c3cnc(OCC(F)(F)F)cn3)ccc1F)N=C(N)S2
[c] C#CCOc1cnc(C(=O)Nc2ccc(F)c([C@@]3(C)N=C(N)S[C@@]4(COC)C[C@H]43)c2)c(C)n1
[d] C[C@]1(c2cc(Nc3ncnc4cc(C#N)cnc34)ccc2F)N=C(N)S[C@@]2(CO)[C@@H]1C2(F)F
Task: Output the entries ranked by IC50 from maximum down to minimum. Returns: the labels listed in the requested order.
Output: d, c, b, a
